- System: C57/BL6 mice fed MCD diet
- test.details: Pharmacodynamic test in methionine-choline deficient diet (MCD) model of non-alcoholic fatty liver disease
- Assay type: in vivo
- experimental.parameters: three weeks after MCD and compounds treatment
value.kind: ALT and AST compared to the model group (in words)

* Cc1cc(C(=O)O)cc(C2CC(O)(c3cnc(OCc4c(-c5c(Cl)cccc5Cl)noc4C(C)C)cn3)C2)c1 (stereo not shown) [TM-09] | significantly reduced
* O=C(O)c1cccc(C2CC(O)(c3cnc(OCc4c(-c5c(Cl)cccc5Cl)noc4C4CC4)cn3)C2)c1 (stereo not shown) [TM-01] | significantly reduced
* CC(C)c1onc(-c2c(Cl)cccc2Cl)c1COc1cnc(C2(O)CC(c3cccc(C(=O)O)c3)C2)cn1 (stereo not shown) [TM-06] | significantly reduced

----------
- test.details: Caco-2 monolayer cell membrane transport experiment
- experimental.parameters: human, Caco-2, Recovery rate B-A, Average, Caco-2, B-A
value.kind: recovery (%)
Give the value in % but do not write % after it.

input: Read off the recorded recovery for C[C@H]1O[C@@H](O[C@H]2[C@@H](O)C[C@H](O[C@H]3[C@@H](O)C[C@H](O[C@H]4CC[C@@]5(C)[C@H](CC[C@@H]6[C@@H]5C[C@@H](O)[C@]5(C)[C@@H](C7=CC(=O)OC7)CC[C@]65O)C4)O[C@@H]3C)O[C@@H]2C)C[C@H](O)[C@@H]1O [Digoxin, digoxin, reference compound]
output: 94.6

----------
- test.details: Caco-2 monolayer cell membrane transport experiment
- experimental.parameters: human, Caco-2, Papp B-A, Average, Caco-2, B-A, Average (Table 3)
value.kind: Papp B→A (×10⁻⁶ cm/s)
Give the value in ×10⁻⁶ cm/s but do not write ×10⁻⁶ cm/s after it.

input: Read off the recorded Papp B→A for C[C@H]1O[C@@H](O[C@H]2[C@@H](O)C[C@H](O[C@H]3[C@@H](O)C[C@H](O[C@H]4CC[C@@]5(C)[C@H](CC[C@@H]6[C@@H]5C[C@@H](O)[C@]5(C)[C@@H](C7=CC(=O)OC7)CC[C@]65O)C4)O[C@@H]3C)O[C@@H]2C)C[C@H](O)[C@@H]1O [Digoxin, digoxin, reference compound]
output: 11.6

----------
- test.details: Caco-2 monolayer cell membrane transport experiment
- experimental.parameters: human, Caco-2, Recovery rate A-B, Sample-02, Caco-2, A-B, Sample-02
value.kind: recovery

input: Read off the recorded recovery for C[C@H]1O[C@@H](O[C@H]2[C@@H](O)C[C@H](O[C@H]3[C@@H](O)C[C@H](O[C@H]4CC[C@@]5(C)[C@H](CC[C@@H]6[C@@H]5C[C@@H](O)[C@]5(C)[C@@H](C7=CC(=O)OC7)CC[C@]65O)C4)O[C@@H]3C)O[C@@H]2C)C[C@H](O)[C@@H]1O [Digoxin, digoxin, reference compound]
output: < 88.7%
